Ref: ChEMBL document CHEMBL5214976

System: MGC-803
TEST_PROTOCOL: Antitumor activity human MGC-803 cells assessed as inhibition of cell proliferation incubated for 72 hrs by MTT assay
Format: functional, cell-based
CONDITION_DETAILS: MGC-803, 72 h
MEASURED_QUANTITY: log10 IC50 (log10 of the value in µM)

given_smiles=C#CCSc1nc(Nc2ccc(Cl)cc2Cl)c2ccncc2n1 measured_quantity="log10 IC50" endpoint_value=1.41
given_smiles=C#CCSc1nc(Nc2cccc(OC)c2)c2ccncc2n1 measured_quantity="log10 IC50" endpoint_value=0.32
given_smiles=COc1cccc(Nc2nc(SCC3CCCCC3)nc3cnccc23)c1 measured_quantity="log10 IC50" endpoint_value=1.37
given_smiles=C#CCSc1nc(Nc2ccc(Br)cc2)c2ccncc2n1 measured_quantity="log10 IC50" endpoint_value=1.41
given_smiles=CCSc1nc(Nc2cccc(OC)c2)c2ccncc2n1 measured_quantity="log10 IC50" endpoint_value=-0.23
